B1: Connector enhancer of kinase suppressor of ras 2, residues 9 to 71; numbered along this chain, Q8WXI2 (parent)
chain: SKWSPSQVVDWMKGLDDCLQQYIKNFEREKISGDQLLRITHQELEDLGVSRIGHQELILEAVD

- Variants of: B1
- Protocol notes: abundance fitness (aPCA) (normalised: wild type 0, dead -1); higher = more abundant; growth selection in yeast, the domain comes from the species named
- Conditions used: Homo sapiens
# label = criterion met if abundance fitness >= -0.09 else criterion not met

Exam item: decide whether the reported abundance fitness for "N25F" is at least -0.09.
criterion met

Exam item: decide whether the reported abundance fitness for "D16Q" is at least -0.09.
criterion not met

Exam item: decide whether the reported abundance fitness for "Y22T" is at least -0.09.
criterion not met

Exam item: decide whether the reported abundance fitness for "V62I" is at least -0.09.
criterion met

Exam item: decide whether the reported abundance fitness for "G14W" is at least -0.09.
criterion not met

Exam item: decide whether the reported abundance fitness for "L59A" is at least -0.09.
criterion not met

Exam item: decide whether the reported abundance fitness for "Q35P" is at least -0.09.
criterion not met

Exam item: decide whether the reported abundance fitness for "L44F" is at least -0.09.
criterion not met

Exam item: decide whether the reported abundance fitness for "F26H" is at least -0.09.
criterion not met

Exam item: decide whether the reported abundance fitness for "I23V" is at least -0.09.
criterion met

Exam item: decide whether the reported abundance fitness for "L15I" is at least -0.09.
criterion not met

Exam item: decide whether the reported abundance fitness for "I52G" is at least -0.09.
criterion met

Exam item: decide whether the reported abundance fitness for "L19Q" is at least -0.09.
criterion not met

Exam item: decide whether the reported abundance fitness for "D46S" is at least -0.09.
criterion met

FYI, the data here is from the Human Domainome abundance scans (Beltran et al. 2025).
